test system: BT-474 human mammary gland ductal carcinoma cells; experiment: Inhibitory response against BT-474 cells (Cell Titer-Glo); format: cell-based; conditions: 72 hours of culture, inhibition of cell growth
Square brackets hold non-standard residues; d marks the D form. Peptide text beside a SMILES is read from it. * marks the point of attachment. Dolaproine = CO[C@@H]([C@@H]1CCCN1)[C@@H](C)C(=O)O; Dil = CC[C@H](C)[C@H](NC)[C@@H](CC(=O)O)OC; dVal(3-OH) = CC(C)(O)[C@@H](N)C(=O)O; Val(3-OH) = CC(C)(O)[C@H](N)C(=O)O; Doe = c1ccc(C[C@H](N*)c2nccs2)cc1; X1 = C[C@@H](N*)[C@@H](O)c1ccccc1; NMeV = CN[C@H](C(=O)O)C(C)C; NMeAib = CNC(C)(C)C(=O)O; Aib = CC(C)(N)C(=O)O
Quick reference: IC50 of the listed items.
Numeric answer only, unit nM assumed.

Consider the reported IC50 for these compounds:
INSERT INTO results (compound, value) VALUES
  ('CC[C@H](C)[C@@H]([C@@H](CC(=O)N1CCC[C@H]1[C@H](OC)[C@@H](C)C(=O)N[C@@H](Cc1ccccc1)c1nccs1)OC)N(C)C(=O)[C@@H](NC(=O)C(C)(C)N)C(C)(C)O [Compound 113] (H-[Aib][Val(3-OH)][Dil][Dolaproine]-Doe)', 1.22),
  ('CC[C@H](C)[C@@H]([C@@H](CC(=O)N1CCC[C@H]1[C@H](OC)[C@@H](C)C(=O)N[C@@H](Cc1ccccc1)c1nccs1)OC)N(C)C(=O)[C@@H](NC(=O)C(C)(C)NC)C(C)(C)O [Compound 107] (H-[NMeAib][Val(3-OH)][Dil][Dolaproine]-Doe)', 0.064),
  ('CC[C@H](C)[C@@H]([C@@H](CC(=O)N1CCC[C@H]1[C@H](OC)[C@@H](C)C(=O)N[C@H](C)[C@@H](O)c1ccccc1)OC)N(C)C(=O)[C@@H](NC(=O)[C@@H](NC)C(C)C)C(C)(C)O [Compound 109] (H-[NMeV][Val(3-OH)][Dil][Dolaproine]-X1)', 26.1);

Q: Entry CC[C@H](C)[C@@H]([C@@H](CC(=O)N1CCC[C@H]1[C@H](OC)[C@@H](C)C(=O)N[C@@H](Cc1ccccc1)c1nccs1)OC)N(C)C(=O)[C@H](NC(=O)C(C)(C)NC)C(C)(C)O [Compound 114] (H-[NMeAib][dVal(3-OH)][Dil][Dolaproine]-Doe) has what IC50?
A: 0.0616

---

test system: HCC1954 cells; assay: Inhibitory response against HCC1954 cells (method analogous to BT-474); format: cell-based; conditions: Homo sapiens, inhibition of cell growth
Square brackets hold non-standard residues; d marks the D form. Peptide text beside a SMILES is read from it. * marks the point of attachment. Dolaproine = CO[C@@H]([C@@H]1CCCN1)[C@@H](C)C(=O)O; Dil = CC[C@H](C)[C@H](NC)[C@@H](CC(=O)O)OC; Val(3-OH) = CC(C)(O)[C@H](N)C(=O)O; Doe = c1ccc(C[C@H](N*)c2nccs2)cc1; X1 = C[C@@H](N*)[C@@H](O)c1ccccc1; NMeAib = CNC(C)(C)C(=O)O; Aib = CC(C)(N)C(=O)O
ASSAY READOUT: pIC50
// field semantics: pIC50 = negative decimal log of concentration (mol/L)

INSERT INTO measurements (compound, value) VALUES
  ('CC[C@H](C)[C@@H]([C@@H](CC(=O)N1CCC[C@H]1[C@H](OC)[C@@H](C)C(=O)N[C@@H](Cc1ccccc1)c1nccs1)OC)N(C)C(=O)[C@@H](NC(=O)C(C)(C)N)C(C)(C)O [Compound 113] (H-[Aib][Val(3-OH)][Dil][Dolaproine]-Doe)', 8.91),
  ('CC[C@H](C)[C@@H]([C@@H](CC(=O)N1CCC[C@H]1[C@H](OC)[C@@H](C)C(=O)N[C@H](C)[C@@H](O)c1ccccc1)OC)N(C)C(=O)[C@@H](NC(=O)C(C)(C)NC)C(C)(C)O [Compound 110] (H-[NMeAib][Val(3-OH)][Dil][Dolaproine]-X1)', 8.53),
  ('CC[C@H](C)[C@@H]([C@@H](CC(=O)N1CCC[C@H]1[C@H](OC)[C@@H](C)C(=O)N[C@H](C)[C@@H](O)c1ccccc1)OC)N(C)C(=O)[C@@H](NC(=O)[C@H](C(C)C)N(C)C)C(C)(C)O', 9.34);

--- query ---
Q: Entry CC[C@H](C)[C@@H]([C@@H](CC(=O)N1CCC[C@H]1[C@H](OC)[C@@H](C)C(=O)N[C@@H](Cc1ccccc1)c1nccs1)OC)N(C)C(=O)[C@@H](NC(=O)[C@H](C(C)C)N(C)C)C(C)(C)O has what pIC50?
A: 11.40

Cited source: patent US10722593B2
